pIC50 values by entry
molecular target: VIM-2 metallo β-lactamase (Pseudomonas aeruginosa); experiment: β-Lactamase inhibition enzyme assay, VIM-2; details: Nitrocefin 100 μM as substrate, 486 nm; 15 min at 37° C. with enzyme, PBS pH 7.4; read-out: Class B VIM-2 IC50
pIC50: −log10 of the molar value.

Reference set, count: 6
input: Recall the reported pIC50 of `Cc1ccc(C(=O)N[C@H]2Cc3cccc(C(=O)O)c3OB2O)cc1NC(=O)[C@@H](N)CN` when tested on VIM-2 metallo β-lactamase (Pseudomonas aeruginosa).
output: 6.00 to 7.00

input: Recall the reported pIC50 of `O=C(N[C@H]1Cc2cccc(C(=O)O)c2OB1O)c1ccc2nccnc2c1` when tested on VIM-2 metallo β-lactamase (Pseudomonas aeruginosa).
output: 5.00 to 6.00

input: Recall the reported pIC50 of `CN1CCc2c(C(=O)N[C@H]3Cc4cccc(C(=O)O)c4OB3O)csc2C1` when tested on VIM-2 metallo β-lactamase (Pseudomonas aeruginosa).
output: 5.00 to 6.00

input: Recall the reported pIC50 of `N=C(N)N1Cc2ccc(C(=O)N[C@H]3Cc4cccc(C(=O)O)c4OB3O)cc2C1` when tested on VIM-2 metallo β-lactamase (Pseudomonas aeruginosa).
output: > 7.00

input: Recall the reported pIC50 of `NCCOc1ccc(CC(=O)N[C@H]2Cc3cccc(C(=O)O)c3OB2O)cc1OCCN` when tested on VIM-2 metallo β-lactamase (Pseudomonas aeruginosa).
output: 6.00 to 7.00

input: Recall the reported pIC50 of `NCc1cnc(C(=O)N[C@H]2Cc3cccc(C(=O)O)c3OB2O)cc1CN` when tested on VIM-2 metallo β-lactamase (Pseudomonas aeruginosa).
output: > 7.00

More entries:
input: Recall the reported pIC50 of `O=C(N[C@H]1Cc2cccc(C(=O)O)c2OB1O)c1ccc(-c2ncc[nH]2)cc1` when tested on VIM-2 metallo β-lactamase (Pseudomonas aeruginosa).
output: 6.00 to 7.00

input: Recall the reported pIC50 of `O=C(Cc1cnc2c(c1)CCCN2)N[C@H]1Cc2cccc(C(=O)O)c2OB1O` when tested on VIM-2 metallo β-lactamase (Pseudomonas aeruginosa).
output: 5.00 to 6.00

* * *

target: SHV-5 β-lactamase (Klebsiella pneumoniae, UniProt P0A3M1); assay: β-Lactamase inhibition enzyme assay, SHV-5
Sequence (P0A3M1 22-286): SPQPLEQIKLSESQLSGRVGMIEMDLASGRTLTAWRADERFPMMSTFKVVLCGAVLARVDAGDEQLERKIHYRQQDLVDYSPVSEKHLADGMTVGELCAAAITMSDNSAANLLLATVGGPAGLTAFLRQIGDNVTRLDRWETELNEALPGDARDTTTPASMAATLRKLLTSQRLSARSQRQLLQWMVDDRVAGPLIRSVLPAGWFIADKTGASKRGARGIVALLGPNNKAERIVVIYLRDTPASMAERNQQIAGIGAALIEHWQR
pIC50: −log10 of the molar value.
Measurement name: pIC50

Reference set, count: 2
input: Note pIC50 for the compound shown: `O=C(N[C@H]1Cc2cccc(C(=O)O)c2OB1O)c1cnc2c(c1)CNC2`
output: > 7.00

input: Note pIC50 for the compound shown: `O=C(N[C@H]1Cc2cccc(C(=O)O)c2OB1O)c1cnc2[nH]ccc2c1`
output: > 7.00

More entries:
input: Note pIC50 for the compound shown: `O=C(Cc1ccc2cc[nH]c2c1)N[C@H]1Cc2cccc(C(=O)O)c2OB1O`
output: > 7.00

input: Note pIC50 for the compound shown: `NCCn1ccc2c(C(=O)N[C@H]3Cc4cccc(C(=O)O)c4OB3O)cccc21`
output: > 7.00

input: Note pIC50 for the compound shown: `O=C(N[C@H]1Cc2cccc(C(=O)O)c2OB1O)c1ccc(-c2ccccn2)cc1`
output: > 7.00

input: Note pIC50 for the compound shown: `O=C1Cc2cc(C(=O)N[C@H]3Cc4cccc(C(=O)O)c4OB3O)ccc2N1`
output: > 7.00

input: Note pIC50 for the compound shown: `NCCNc1ccc(CC(=O)N[C@H]2Cc3cccc(C(=O)O)c3OB2O)c[n+]1[O-]`
output: > 7.00

input: Note pIC50 for the compound shown: `CN1CCc2c(C(=O)N[C@H]3Cc4cccc(C(=O)O)c4OB3O)csc2C1`
output: > 7.00

input: Note pIC50 for the compound shown: `O=C(O)c1cccc2c1OB(O)[C@@H](NC(=O)c1cccc3cc[nH]c13)C2`
output: 6.00 to 7.00

* * *

pIC50 values by entry
target: SHV-5 β-lactamase (Klebsiella pneumoniae, UniProt P0A3M1); assay: β-Lactamase inhibition enzyme assay, SHV-5
pIC50: −log10 of the molar value.

Reference set, count: 3
input: Note pIC50 for the molecule shown: CN(C)Cc1ccc(C(=O)N[C@H]2Cc3cccc(C(=O)O)c3OB2O)cc1NC(=O)[C@@H](N)CN [Example 21]
output: 6.00 to 7.00

input: Note pIC50 for the molecule shown: O=C(N[C@H]1Cc2cccc(C(=O)O)c2OB1O)c1ccc2c(c1)CNC2 [Example 9]
output: > 7.00

input: Note pIC50 for the molecule shown: O=C(O)c1cccc2c1OB(O)[C@@H](NC(=O)C1(c3ccccc3)CC1)C2 [Example 1]
output: > 7.00

More entries:
input: Note pIC50 for the molecule shown: O=C(N[C@H]1Cc2cccc(C(=O)O)c2OB1O)c1ccc2ncccc2c1 [Example 28]
output: > 7.00

input: Note pIC50 for the molecule shown: CN(C)Cc1ccc(C(=O)N[C@H]2Cc3cccc(C(=O)O)c3OB2O)cc1N [Example 18]
output: > 7.00

input: Note pIC50 for the molecule shown: Cc1ccc(C(=O)N[C@H]2Cc3cccc(C(=O)O)c3OB2O)cc1NC(=O)[C@@H](N)CN [Example 22]
output: 5.00 to 6.00

input: Note pIC50 for the molecule shown: CC(C)NCc1cc(C(=O)N[C@H]2Cc3cccc(C(=O)O)c3OB2O)ccc1CN [Example 55]
output: 6.00 to 7.00

input: Note pIC50 for the molecule shown: O=C(N[C@H]1Cc2cccc(C(=O)O)c2OB1O)c1ccc2cc[nH]c2c1 [Example 30]
output: 6.00 to 7.00

* * *

IC50 values by entry
target: VIM-2 metallo β-lactamase (Pseudomonas aeruginosa, UniProt Q9K2N0); construct: made in house; host or cells: E. coli BL21(DE3); test: β-Lactamase inhibition enzyme assay, VIM-2; format: biochemical; conditions: Nitrocefin 100 μM as substrate, 486 nm; 15 min at 37° C. with enzyme, PBS pH 7.4; read-out: Class B VIM-2 IC50

Reference set, count: 5
input: Note IC50 for the compound shown: `O=C(N[C@H]1Cc2cccc(C(=O)O)c2OB1O)c1cnco1`
output: 100 to 1000 nM

input: Note IC50 for the compound shown: `O=C(N[C@H]1Cc2cccc(C(=O)O)c2OB1O)c1ccc2c(c1)CNC2`
output: < 100 nM

input: Note IC50 for the compound shown: `O=C(N[C@H]1Cc2cccc(C(=O)O)c2OB1O)c1ccc(O)c(O)c1`
output: 100 to 1000 nM

input: Note IC50 for the compound shown: `NCCNc1ccc(CC(=O)N[C@H]2Cc3cccc(C(=O)O)c3OB2O)cc1`
output: 1000 to 10000 nM

input: Note IC50 for the compound shown: `O=C(N[C@H]1Cc2cccc(C(=O)O)c2OB1O)c1ccc2ncccc2c1`
output: 1000 to 10000 nM

More entries:
input: Note IC50 for the compound shown: `N=C(N)N1Cc2ccc(CC(=O)N[C@H]3Cc4cccc(C(=O)O)c4OB3O)cc2C1`
output: 100 to 1000 nM

input: Note IC50 for the compound shown: `CC(C)NCc1cc(C(=O)N[C@H]2Cc3cccc(C(=O)O)c3OB2O)ccc1CN`
output: 100 to 1000 nM

input: Note IC50 for the compound shown: `O=C(O)c1ccccc1C(=O)N[C@H]1Cc2cccc(C(=O)O)c2OB1O`
output: 1000 to 10000 nM

input: Note IC50 for the compound shown: `NCCNc1ccc(CC(=O)N[C@H]2Cc3cccc(C(=O)O)c3OB2O)cn1`
output: 100 to 1000 nM

input: Note IC50 for the compound shown: `O=C(N[C@H]1Cc2cccc(C(=O)O)c2OB1O)c1ccc2nc[nH]c2c1`
output: 100 to 1000 nM

input: Note IC50 for the compound shown: `NCCNc1ccc(CC(=O)N[C@H]2Cc3cccc(C(=O)O)c3OB2O)c[n+]1[O-]`
output: 100 to 1000 nM

input: Note IC50 for the compound shown: `CNCc1ccc(C(=O)N[C@H]2Cc3cccc(C(=O)O)c3OB2O)cc1CNC`
output: < 100 nM

input: Note IC50 for the compound shown: `NCCN1Cc2ccc(CC(=O)N[C@H]3Cc4cccc(C(=O)O)c4OB3O)cc2C1`
output: 100 to 1000 nM

input: Note IC50 for the compound shown: `CN(C)Cc1ccc(C(=O)N[C@H]2Cc3cccc(C(=O)O)c3OB2O)cc1NC(=O)[C@@H](N)CN`
output: < 100 nM

input: Note IC50 for the compound shown: `O=C(Cc1ccc2c(c1)CNCC2)N[C@H]1Cc2cccc(C(=O)O)c2OB1O`
output: < 100 nM

* * *

target: VIM-2 metallo β-lactamase (Pseudomonas aeruginosa, UniProt Q9K2N0); assay: β-Lactamase inhibition enzyme assay, VIM-2; settings: Nitrocefin 100 μM as substrate, 486 nm; 15 min at 37° C. with enzyme, PBS pH 7.4; read-out: Class B VIM-2 IC50
IC50 values by entry

Reference set, count: 7
input: Note IC50 for the compound shown: `O=C(N[C@H]1Cc2cccc(C(=O)O)c2OB1O)c1ccc2c(c1)CCNC2`
output: 100 to 1000 nM

input: Note IC50 for the compound shown: `NCCOc1ccc(C(=O)N[C@H]2Cc3cccc(C(=O)O)c3OB2O)cc1O`
output: < 100 nM

input: Note IC50 for the compound shown: `NCCNC(=O)c1ccccc1C(=O)N[C@H]1Cc2cccc(C(=O)O)c2OB1O`
output: 1000 to 10000 nM

input: Note IC50 for the compound shown: `NC1=NCc2ccc(C(=O)N[C@H]3Cc4cccc(C(=O)O)c4OB3O)cc2CN1`
output: < 100 nM

input: Note IC50 for the compound shown: `O=C(Cc1ccc(O)c(O)c1)N[C@H]1Cc2cccc(C(=O)O)c2OB1O`
output: 100 to 1000 nM

input: Note IC50 for the compound shown: `N=C(N)NCc1ccc(C(=O)N[C@H]2Cc3cccc(C(=O)O)c3OB2O)cc1CNC(=N)N`
output: < 100 nM

input: Note IC50 for the compound shown: `NCCN1Cc2ccc(C(=O)N[C@H]3Cc4cccc(C(=O)O)c4OB3O)cc2C1`
output: 100 to 1000 nM

We now examine a further compound.
input: Note IC50 for the compound shown: `O=C(O)c1cccc2c1OB(O)[C@@H](NC(=O)c1cccc3[nH]ccc13)C2`
output: 100 to 1000 nM
